# CONDITION_DETAILS: 293.2 K; 101.33 kPa; Liquid; Vibrating tube method
MEASUREMENT_TYPE: mass density (kg/m3)
One number for each entry, in kg/m3.

* O=CO | 1219.5

State the recorded mass density for every item in the following list.
1. CC(=O)OCCC(C)C [3-methylbutyl ethanoate]
2. CCCC(=O)O
3. CC(=O)CCC(C)C

866.71
952.68
887.92

###

# ASSAY_REMARKS: refractive index (Na D-line) (dimensionless)
# CONDITION_DETAILS: 293.2 K; 101.33 kPa; Liquid; Standard Abbe refractometry
Numbers after ± are expanded uncertainties.
Please respond with reported refractive index for every item in the list.

// below: answered compounds
• CC(=O)OCCC(C)C [3-methylbutyl ethanoate] = 1.3976 ± 0.0008
• CC(=O)CCC(C)C = 1.4051 ± 0.0008
• CCCC(=O)O = 1.3977 ± 0.0008
• O=CO = 1.371 ± 0.0008

Shifting focus to the compound that follows.
Recorded refractive index for O , please?
1.3324 ± 0.0008
